# System: M. tuberculosis HN878
# test description: M. tuberculosis HN878 growth inhibition
# Format: cell-based, Mycobacterium tuberculosis
# test context: visual inspection
Measured Mtb HN878 MIC, listed per entry.

| compound | Mtb HN878 MIC |
| --- | --- |
| CCCCCCC1(NCCNCC=C(C)CCC=C(C)C)C2CC3CC(C2)CC1C3 (stereo not shown) | 3 µM |
| CC(C)=CCCC(C)=CCNCCNC1(c2ccccc2)C2CC3CC(C2)CC1C3 (stereo not shown) | 1.6 µM |
| CCCC1(NCCNCC=C(C)CCC=C(C)C)C2CC3CC(C2)CC1C3 (stereo not shown) | 3 µM |
| CC(C)=CCCC(C)=CCNCCNC1(C)C2CC3CC(C2)CC1C3 (stereo not shown) | 0.8 µM |
| CCCCC1(NCCNCC=C(C)CCC=C(C)C)C2CC3CC(C2)CC1C3 (stereo not shown) | 3 µM |
| CC(C)=CCCC(C)=CCNCCNC1(Cc2ccccc2)C2CC3CC(C2)CC1C3 (stereo not shown) | 1.6 µM |
| CC(C)=CCCC(C)=CCNCCNC(C)(C)C12CC3CC(CC(C3)C1)C2 | 3 µM |

====

Measured viability at 2 µM, listed per entry.
# test description: in vitro
# test context: human

| compound | viability at 2 µM, % |
| --- | --- |
| CCC1(NCCNCC=C(C)CCC=C(C)C)C2CC3CC(C2)CC1C3 (centres unmarked) [Compound 8c] | 85 |
| CC(C)=CCCC(C)=CCNC(=O)CNC(C)(C)C12CC3CC(CC(C3)C1)C2 [Compound 15] | 91 |

====

# Tested on: HepG2 (human hepatocellular carcinoma) cells
# test description: HepG2 cell line viability
# test context: 20 μM
reported property: HepG2 % viability @ 20 μM (%)

| compound | reported property | number |
| --- | --- | --- |
| CCCCC1(NCCNCC=C(C)CCC=C(C)C)C2CC3CC(C2)CC1C3 (stereo not drawn) [Compound 8e] | HepG2 % viability @ 20 μM | 50 |
| CC(C)=CCCC(C)=CCNCCNC1(c2ccccc2)C2CC3CC(C2)CC1C3 (stereo not drawn) [Compound 8h] | HepG2 % viability @ 20 μM | 100 |
| CC(C)=CCCC(C)=CCNCCNC(C)(C)C12CC3CC(CC(C3)C1)C2 [Compound 12] | HepG2 % viability @ 20 μM | 100 |
| CCCC1(NCCNCC=C(C)CCC=C(C)C)C2CC3CC(C2)CC1C3 (stereo not drawn) [Compound 8d] | HepG2 % viability @ 20 μM | 100 |
| CC(C)=CCCC(C)=CCNCCNC1(Cc2ccccc2)C2CC3CC(C2)CC1C3 (stereo not drawn) [Compound 8g] | HepG2 % viability @ 20 μM | 100 |
| CC(C)=CCCC(C)=CCNCCNC1(C)C2CC3CC(C2)CC1C3 (stereo not drawn) [Compound 8b] | HepG2 % viability @ 20 μM | 100 |

====

Measured kd2, listed per entry.
# test target: M. tuberculosis MmpL3 (MtMmpL3) (Mycobacterium tuberculosis)
# Sequence (P9WJV5 whole entry): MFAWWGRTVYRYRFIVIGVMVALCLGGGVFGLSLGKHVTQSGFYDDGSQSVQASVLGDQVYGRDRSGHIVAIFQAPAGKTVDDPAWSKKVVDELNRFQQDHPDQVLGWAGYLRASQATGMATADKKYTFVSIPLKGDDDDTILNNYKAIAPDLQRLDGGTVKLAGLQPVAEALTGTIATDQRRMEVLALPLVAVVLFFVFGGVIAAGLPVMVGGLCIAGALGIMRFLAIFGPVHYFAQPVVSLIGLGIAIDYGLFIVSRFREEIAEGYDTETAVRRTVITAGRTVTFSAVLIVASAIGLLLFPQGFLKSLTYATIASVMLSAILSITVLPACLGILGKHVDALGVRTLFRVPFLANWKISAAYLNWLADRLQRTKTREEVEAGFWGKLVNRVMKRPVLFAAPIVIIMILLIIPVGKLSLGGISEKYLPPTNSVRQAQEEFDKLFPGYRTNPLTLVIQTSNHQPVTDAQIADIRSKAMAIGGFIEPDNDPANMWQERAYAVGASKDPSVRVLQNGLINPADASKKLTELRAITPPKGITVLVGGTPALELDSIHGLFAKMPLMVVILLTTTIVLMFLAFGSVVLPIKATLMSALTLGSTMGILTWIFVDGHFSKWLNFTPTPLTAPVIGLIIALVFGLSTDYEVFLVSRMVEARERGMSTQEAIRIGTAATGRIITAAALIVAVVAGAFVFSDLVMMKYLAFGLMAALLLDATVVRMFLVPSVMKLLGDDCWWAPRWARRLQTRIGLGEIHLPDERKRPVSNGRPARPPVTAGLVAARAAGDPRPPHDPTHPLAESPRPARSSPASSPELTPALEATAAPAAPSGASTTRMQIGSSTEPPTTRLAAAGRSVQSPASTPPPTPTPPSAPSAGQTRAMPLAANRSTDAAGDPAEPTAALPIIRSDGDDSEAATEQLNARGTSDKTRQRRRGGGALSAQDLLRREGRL
# test description: Surface plasmon resonance binding to MmpL3
# test context: two-state model

| compound | kd2 / s⁻¹ |
| --- | --- |
| CC(C)=CCCC(C)=CCNCCNC1(Cc2ccccc2)C2CC3CC(C2)CC1C3 (stereo not drawn) [Compound 8g] | 0.03248 |
| CC(C)=CCCC(C)=CCNC(=O)CNC1(C)C2CC3CC(C2)CC1C3 (stereo not drawn) [Compound 14b] | 0.02741 |
| CC(C)=CCCC(C)=CCNCCNC1(c2ncc(-c3ccccc3)s2)C2CC3CC(C2)CC1C3 (stereo not drawn) [Compound 8i] | 0.03057 |
| CCCC1(NCCNCC=C(C)CCC=C(C)C)C2CC3CC(C2)CC1C3 (stereo not drawn) [Compound 8d] | 0.04246 |
| CC(C)=CCCC(C)=CCNCCNC(C)(C)C12CC3CC(CC(C3)C1)C2 [Compound 12] | 0.03558 |
| CCCCCCC1(NCCNCC=C(C)CCC=C(C)C)C2CC3CC(C2)CC1C3 (stereo not drawn) [Compound 8f] | 0.03992 |
| CCCC1(NCC(=O)NCC=C(C)CCC=C(C)C)C2CC3CC(C2)CC1C3 (stereo not drawn) [Compound 14d] | 0.03103 |
| CCC1(NCCNCC=C(C)CCC=C(C)C)C2CC3CC(C2)CC1C3 (stereo not drawn) [Compound 8c] | 0.03012 |
| CC(C)=CCC/C(C)=C/CNCCNC1C2CC3CC(C2)CC1C3 (stereo not drawn) [Compound 8a, reference compound] | 0.02222 |
| CCCCC1(NCCNCC=C(C)CCC=C(C)C)C2CC3CC(C2)CC1C3 (stereo not drawn) [Compound 8e] | 0.03763 |
| CC(C)=CCCC(C)=CCNCCNC1(c2ccccc2)C2CC3CC(C2)CC1C3 (stereo not drawn) [Compound 8h] | 0.03247 |
| CC(C)=CCCC(C)=CCNCCNC1(C)C2CC3CC(C2)CC1C3 (stereo not drawn) [Compound 8b] | 0.03486 |
